Source of measurements: ChEMBL document CHEMBL3871278

experiment: Cytotoxicity against human HepG2 cells assessed as cell growth inhibition after 48 hrs by SRB assay; type: toxicity, cell-based
Counter-ions that a name gives are not always drawn.
MEASURED_ENDPOINT: GI50 at 48 h

Form: compound = COc1cccc2c1C(=O)c1c(O)c3c(c(O)c1C2=O)C[C@@](O)(C(=O)CO)C[C@@H]3O[C@H]1C[C@H](N)[C@H](O)[C@H](C)O1 [DOXORUBICIN HYDROCHLORIDE] ; GI50 at 48 h = 0.04 to 0.08 µg/mL

---

assay: Cytotoxicity against human MCF10A cells assessed as cell growth inhibition after 48 hrs by SRB assay; type: toxicity, cell-based, MCF-10A
Structures can show the parent of a compound that is named as a salt.
MEASURED_ENDPOINT: GI50 at 48 h

Form: compound = COc1cccc2c1C(=O)c1c(O)c3c(c(O)c1C2=O)C[C@@](O)(C(=O)CO)C[C@@H]3O[C@H]1C[C@H](N)[C@H](O)[C@H](C)O1 [DOXORUBICIN HYDROCHLORIDE] ; GI50 at 48 h = 0.04 to 0.08 µg/mL
